- Read-out: UDP glucuronosyltransferase (UGT1A1), UGT1A1 (gene 54658)
- PROCEDURE_SUMMARY: LTEA_HepaRG_UGT1A1: Life Technologies and Expression Analysis (LTEA) Assay for UDP glucuronosyltransferase (UGT1A1) using HepaRG (AID 2283538)
- RECORDED_CONDITIONS: mRNA level, 48 h; actives raise or lower the signal
Calls of active or inactive are those of the source. How the source made its calls: active means hit-call score of the fitted dose curve at least 0.9, where 1 is the maximum; inactive means score below 0.9.
Give one outcome, nothing more. List: active, inactive

Field: example entries. Status: answers known.
CCCN(CCC)c1c([N+](=O)[O-])cc(C(F)(F)F)cc1[N+](=O)[O-]: active
CCc1ccc(C(=O)NN(C(=O)c2cc(C)cc(C)c2)C(C)(C)C)cc1: active
O=C(O)CCCOc1ccc(Cl)cc1Cl: active
COc1nn(CSP(=S)(OC)OC)c(=O)s1: active

[Q] Query: recorded result category for CNC(=O)CSP(=S)(OC)OC in this test
[A] inactive

[Q] Look up the recorded call for COP(=O)(OC)OC=C(Cl)Cl in this test.
[A] inactive

[Q] I would be grateful if you could indicate the recorded call for Oc1ccc(Cl)cc1Cc1ccccc1 .
[A] inactive

* * *

- Read-out: urokinase plasminogen activator (uPA), PLAU (gene 5328)
- PROCEDURE_SUMMARY: BSK_BE3C_uPA: BioMAP Diversity Plus: BE3C Assay for urokinase plasminogen activator (uPA) Biomarker Activity (AID 2283038);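 on outcome: uPA protein level quantified by ELISA in cell cultures; uPA read one day after compound addition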
- RECORDED_CONDITIONS: primary human bronchial epithelial cells; actives raise or lower the signal
The source made the active and inactive calls. The calls were made as follows: active = hit-call score of the fitted dose curve at least 0.9, where 1 is the maximum; inactive = score below 0.9.
Response enum: t for active, f for inactive

[Q] Tell me the recorded outcome of this test for CC(C)(C)C(O)C(Oc1ccc(Cl)cc1)n1cncn1 (stereo not drawn) .
[A] f

[Q] Query: recorded result category for CC[C@H](C)[C@H]1O[C@]2(C=C[C@@H]1C)C[C@@H]1C[C@@H](C/C=C(\C)[C@@H](O[C@H]3C[C@H](OC)[C@@H](O[C@H]4C[C@H](OC)[C@@H](O)[C@H](C)O4)[C@H](C)O3)[C@@H](C)/C=C/C=C3\CO[C@@H]4[C@H](O)C(C)=C[C@@H](C(=O)O1)[C@]34O)O2 (tested in a mixture with another compound) in this test
[A] t

[Q] Kindly provide the recorded test outcome for the following compound: OCCOc1ccccc1
[A] f

* * *

- Read-out: Cellular tumor antigen p53 (Homo sapiens)
- PROCEDURE_SUMMARY: LTEA_HepaRG_TP53: Life Technologies and Expression Analysis (LTEA) Assay for Tumor Protein P53 (TP53) using HepaRG (AID 2283537)
- RECORDED_CONDITIONS: mRNA level, 48 h; actives raise or lower the signal
The source made the active and inactive calls. The calls were made as follows: active = hit-call score of the fitted dose curve at least 0.9, where 1 is the maximum; inactive = score below 0.9.
Allowed answers: 1 = active, -1 = inactive

CNC(=O)Oc1cccc(N=CN(C)C)c1: -1
O=C(O)COc1ccc(Cl)cc1Cl: -1
Oc1ccc(Cl)cc1Cc1ccccc1: -1
CC1(C)C(C=C(Cl)Cl)C1C(=O)OC(C#N)c1ccc(F)c(Oc2ccccc2)c1 (configuration not stated): -1
CCCN(CCOc1c(Cl)cc(Cl)cc1Cl)C(=O)n1ccnc1: 1

[Q] Could you please tell me the result logged for CNC(=O)Oc1ccccc1OC(C)C in this assay?
[A] -1

[Q] Each compound tested received a call. Report the one for COP(=S)(OC)Oc1ccc([N+](=O)[O-])cc1 .
[A] -1
